# ASSAY TEXT: cAMP Responsive Elements (CRE) small molecule antagonists, cell-based qHTS assay: qHTS cell viability counter screen (AID 2060913); further: nearly all actives have a fitted effect of over 40% in size
# TEST SETTINGS: CRE-bla HEK293T viability, CellTiter-Glo luminescence, 5 h; series mostly up to 92.4 µM
# Description: U.S. Tox21 Program National Center for Advancing Translational Sciences [NCATS] Division of Preclinical Innovation [DPI] U.S. Environmental Protection Agency [EPA] National Institutes of Environmental Health Sciences [NIEHS] National Toxicology Program [NTP] U.S. Food and Drug Administration [FDA] […] The activation of the report gene under culture conditions can be detected by fluorescence intensity. […]
Results filed as inconclusive are left out. Activity calls are given as the source filed them. The call rests on the fitted dose curve; in most records, active means well fitted cell-killing curve with a large enough effect in the repeat runs; inconclusive means weak or mixed curves, or effect the other way; inactive means flat fitted curve, though single readings scatter.
PARAMETER: viability change, negative = cytotoxic

Consider the reported viability change, negative = cytotoxic for these compounds:
- CC1=C(C=O)C(C)(C)CC=C1: inactive
- COc1ccc(COC(C)=O)cc1: inactive
- CC(C)(COC(=O)c1ccccc1)COC(=O)c1ccccc1: inactive
- CCOC(=O)CC(CC(=O)OCC)(OC(C)=O)C(=O)OCC: inactive
- O=C1O[C@H]([C@H](O)CO)C(O)=C1O: inactive

Asked: Retrieve viability change, negative = cytotoxic measured for `Nc1ccc(Cl)c(N)c1` and print it.
Given back: inactive

Asked: Look up viability change, negative = cytotoxic of COc1cc2nc(N3CCN(C(=O)C4COc5ccccc5O4)CC3)nc(N)c2cc1OC (stereo not given) and report it.
Given back: inactive

Asked: Give the reported value of viability change, negative = cytotoxic for this record: `CCCCCCCC/C=C/C(=O)O`
Given back: inactive

Asked: Give me measured viability change, negative = cytotoxic, please, for this compound: `COc1cccc([C@H](O)C2CCN(CCc3ccc(F)cc3)CC2)c1OC`
Given back: inactive

Asked: Query viability change, negative = cytotoxic for `OCCOCCN1CCN(C2=Nc3ccccc3Sc3ccccc32)CC1`
Given back: inactive

Asked: Supply recorded viability change, negative = cytotoxic for `COc1cc(O)cc(O)c1` here.
Given back: inactive

Asked: Identify measured viability change, negative = cytotoxic corresponding to `CN(C)c1ccncc1`
Given back: inactive

Asked: Quickly give me recorded viability change, negative = cytotoxic for `NC/C=C/C(=O)O`
Given back: inactive

Asked: Specify measured viability change, negative = cytotoxic for `CCCCCCCCC=O` .
Given back: inactive

Asked: Output measured viability change, negative = cytotoxic for this item: `C=Cc1ccc(C)cc1`
Given back: inactive

====

# ASSAY TEXT: cAMP Responsive Elements (CRE) small molecule antagonists, cell-based qHTS assay: qHTS cell viability counter screen (AID 2060913); further: nearly all actives have a fitted effect of over 40% in size
# TEST SETTINGS: CRE-bla HEK293T viability, CellTiter-Glo luminescence, 5 h; series mostly up to 92.4 µM
Results filed as inconclusive are left out. Active and inactive are the calls of the source. The call rests on the fitted dose curve; in most records, active means well fitted cell-killing curve with a large enough effect in the repeat runs; inconclusive means weak or mixed curves, or effect the other way; inactive means flat fitted curve, though single readings scatter.
PARAMETER: viability change, negative = cytotoxic

Guide cases for viability change, negative = cytotoxic, answers given:
• C=CC(=O)CCCCC = inactive
• CC(C)(C)N = inactive
• CC=C(Cl)Cl = inactive
• NC(=O)C(=O)N/N=C/c1ccc([N+](=O)[O-])o1 = inactive
• COc1cc([C@@H]2c3cc4c(cc3[C@@H](O[C@@H]3O[C@@H]5CO[C@@H](C)O[C@H]5[C@H](O)[C@H]3O)[C@H]3COC(=O)[C@H]23)OCO4)cc(OC)c1O = inactive

Turning now to a further record.
Asked: Dear colleague, please send me the reported viability change, negative = cytotoxic for `Nc1cc([N+](=O)[O-])ccc1Cl` when you can.
Given back: inactive
